Assay: Bioavailability and pharmacokinetics in normal rats
Type: in vivo, rat
Settings: female, CD, rat, plasma, po, 50 mg/kg, rat; salt; 50 mg/kg; read-out: Bioavailability for oral administration
Structures can show the parent of a compound that is named as a salt.
Observed Property: bioavailability (%)

[[record]]
molecule = "CC(C)c1ccc2oc3nc(N)c(C(=O)O)cc3c(=O)c2c1 [Amlexanox (salt), sodium salt]"
number = 2.1


====

Assay: Pharmacokinetics and bioavailability in normal mice
Format: in vivo, mouse
Settings: female, C57BL/6, iv; mouse plasma; i.v.; 100 mg/kg
Where a name gives a salt, the structure may show the parent alone.
Observed Property: AUC (µg·h/mL)

[[record]]
compound = "CC(C)c1ccc2oc3nc(N)c(C(=O)O)cc3c(=O)c2c1 [Amlexanox (salt), sodium salt]"
observed_property = "AUC"
number = 734


Ref: patent US7772255B2
